Test system: KB
Test: Cytotoxicity against human KB cells assessed as reduction in cell growth incubated for 48 hrs by MTT assay
Format: functional, cell-based
ASSAY_READOUT: IC50 (µM)
Write the number in µM without appending the unit.

| STRUCTURE_SMILES | READOUT_NUMBER |
| --- | --- |
| COc1cccc(-c2c[nH]c3c(F)cccc3c2=O)c1 | 0.03 |

# next molecule below
Query block: What value of IC50 on KB does COc1cccc(-c2c[nH]c3c(F)cc(F)cc3c2=O)c1 have?
Result block: 0.06

---

Reported pIC50 values for the following compounds.
Test system: ARO
Test: Antiproliferative activity against human ARO cells assessed as reduction in cell growth incubated for 48 hrs by MTT assay
Format: functional, cell-based
// returns pIC50 (minus log10 of molar concentration), number only

| STRUCTURE_SMILES | ASSAY_READOUT | READOUT_NUMBER |
| --- | --- | --- |
| O=c1cc(-c2ccccc2)[nH]c2ccc3c(ccn3CC3CC3)c12 | pIC50 | 7.70 |

# next compound below
Query block: Item CCOC(=O)CCn1ccc2c3c(=O)cc(-c4ccccc4)[nH]c3ccc21 has what recorded pIC50?
Result block: 8.30

Where do the numbers come from? From ChEMBL document CHEMBL5576076.
